Values compiled from ChEMBL document CHEMBL4229477.

Can you tell me inhibition for the items I'm about to list?
target: Large neutral amino acids transporter small subunit 1 (Homo sapiens); test: Cis-inhibition of human LAT1 expressed in TREx HEK293 cells at 200 uM assessed as inhibition of [3H]-gabapentin uptake at 200 uM preincubated for 3 mins at 37 degC followed by washing with choline buffer and measured after 3 hrs by scintillation counting analysis relative to BCH; assay type: cell-based
Give bare numbers, in %.

Sample records with inhibition:
{"columns": ["smilesEntry", "quantity", "unitOfMeasurement", "obsValue"],
 "data": [
  ["CC(C)C[C@@](N)(Cc1ccccc1)C(=O)O", "inhibition", "%", 2.1],
  ["N[C@@H](Cc1cccc(C(F)(F)F)c1)C(=O)O", "inhibition", "%", 87]
]}

Parameters: items (list). Returns: inhibition for each item.
1. COC(=O)c1cc(C)cc(C[C@H](N)C(=O)O)c1
2. CSCC[C@@](N)(Cc1ccccc1)C(=O)O
3. N[C@@H](Cc1cccc(CC(=O)O)c1)C(=O)O
4. NCCCC[C@H](N)C(=O)O
5. N[C@@H](Cc1cn(Cc2ccccc2)cn1)C(=O)O

Return:
1. 71
2. -0.2
3. 25
4. -2.1
5. 74

Value sought for every listed molecule: inhibition.
1. CSCC[C@@H](N)C(=O)O
2. N[C@H](Cc1c[nH]c2ccccc12)C(=O)O
3. Nc1cccc(C[C@H](N)C(=O)O)c1

Return:
56
29
100

Provide inhibition for all items below, preserving their order.
1. N[C@@H](Cc1cccc(C(=O)OCCO)c1)C(=O)O
2. N#Cc1cccc(C[C@H](N)C(=O)O)c1
3. CC(=O)Nc1cccc(C[C@H](N)C(=O)O)c1

Return:
1. 81
2. 67
3. 85

----------
target: Large neutral amino acids transporter small subunit 1 (Homo sapiens); assay: Cis-inhibition of human LAT1 expressed in TREx HEK293 cells at 200 uM assessed as inhibition of [3H]-gabapentin uptake at 200 uM preincubated for 3 mins at 37 degC followed by washing with choline buffer and measured after 3 hrs by scintillation counting analysis relative to BCH; assay type: cell-based
quantity: inhibition (%)
Answers are plain numbers, in %.

Example results:
{"columns": ["smilesEntry", "inhibition / %"],
 "data": [
  ["CC(C)[C@H](N)C(=O)O", 43],
  ["Cc1cc(C[C@H](N)C(=O)O)cc(C(=O)O)c1", 30],
  ["N[C@@](Cc1ccccc1)(Cc1c[nH]cn1)C(=O)O", 19],
  ["CC(=O)Oc1cccc(C[C@H](N)C(=O)O)c1", 54],
  ["NC(Cc1ccccc1)(Cc1ccccc1)C(=O)O", 11],
  ["N[C@H](Cc1ccccc1)C(=O)O", 74]
]}

Provide inhibition for all items below, preserving their order.
1. CC[C@H](C)[C@@H](N)C(=O)O
2. CC(C)(C)OC(=O)c1cccc(C[C@H](N)C(=O)O)c1
3. N[C@H](Cc1cccc(C(=O)O)c1)C(=O)O
4. N[C@H](Cc1ccc(O)cc1)C(=O)O
5. CC(C)[C@@H](N)C(=O)O
6. COC(=O)c1ccc(C[C@H](N)C(=O)O)cc1
7. N[C@@H](Cc1cccc(O)c1)C(=O)O

Return:
1. 18
2. 99
3. 9
4. 35
5. 11
6. 37
7. 97

Kindly note: Large neutral amino acids transporter small subunit 1 (Homo sapiens), `CC(C)(C)c1cccc(C[C@H](N)C(=O)O)c1` , inhibition value reported: 101
